This collection of values is drawn from paper PMC12390684.

- study_target: IN-GCN2 interaction (6xHis-IN / GST-GCN2) (UniProt P04585+Q9P2K8)
- Sequence (Q9P2K8 192-1024, other chains not shown): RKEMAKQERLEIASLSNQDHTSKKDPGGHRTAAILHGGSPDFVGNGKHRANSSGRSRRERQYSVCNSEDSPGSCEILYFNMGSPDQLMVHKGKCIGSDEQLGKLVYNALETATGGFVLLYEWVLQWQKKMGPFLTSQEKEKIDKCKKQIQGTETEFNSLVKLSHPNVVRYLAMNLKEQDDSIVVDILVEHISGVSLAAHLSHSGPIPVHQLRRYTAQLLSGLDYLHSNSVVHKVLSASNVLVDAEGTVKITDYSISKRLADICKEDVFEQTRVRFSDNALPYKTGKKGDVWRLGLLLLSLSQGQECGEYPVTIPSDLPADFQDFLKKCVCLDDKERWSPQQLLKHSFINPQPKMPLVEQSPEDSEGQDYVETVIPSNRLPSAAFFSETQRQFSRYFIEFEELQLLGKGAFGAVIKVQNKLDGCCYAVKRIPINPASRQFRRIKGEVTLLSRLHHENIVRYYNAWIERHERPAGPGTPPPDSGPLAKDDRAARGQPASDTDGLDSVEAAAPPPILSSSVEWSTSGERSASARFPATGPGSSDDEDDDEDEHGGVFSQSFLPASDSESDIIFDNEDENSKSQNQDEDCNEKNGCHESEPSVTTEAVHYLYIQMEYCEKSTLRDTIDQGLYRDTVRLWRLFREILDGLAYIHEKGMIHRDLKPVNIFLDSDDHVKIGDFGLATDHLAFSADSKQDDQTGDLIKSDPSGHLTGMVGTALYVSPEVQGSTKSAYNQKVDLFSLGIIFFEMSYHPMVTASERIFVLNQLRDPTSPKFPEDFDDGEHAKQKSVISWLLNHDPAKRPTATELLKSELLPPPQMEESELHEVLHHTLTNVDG
- test_details: biochemical
- Assay type: binding, HIV-1 IN; human GCN2
- condition_description: screen, single dose 100 µM, single replicate; residual AlphaLISA signal normalized to DMSO control
metric_name: IN-GCN2 interaction (%)
The figure you give is taken to be in %; do not add the unit.

IN-GCN2 interaction (%) reading for "COc1ccc2c(c1)[C@@]13CCN4CC5=CCO[C@H]6CC(=O)N2[C@H]1[C@H]6[C@H]5C[C@H]43" : 85.38

---

- study_target: IN-GCN2 interaction (6xHis-IN / GST-GCN2) (UniProt P04585+Q9P2K8)
- test_details: biochemical
- Format: binding, HIV-1 IN; human GCN2
- condition_description: screen, single dose 100 µM, single replicate; residual AlphaLISA signal normalized to DMSO control
Rule: class 1 for IN-GCN2 interaction (%) not less than 70%, class 0 for anything less.

molecule	class_assignment
C/C=C\C(C)=C\[C@H](C)C(=O)C[C@H](O)CC1CC(=O)NC(=O)C1	class 1
CC1CCC2C(C)C3C(CC4C5CC=C6CC(OC7OC(CO)C(O)C(OC8OC(CO)C(O)C(O)C8O)C7OC7OC(C)C(O)C(O)C7O)CCC6(C)C5CCC43C)N2C1.Cl (stereo not drawn)	class 1
COc1ccc2[nH]c3c(C)c4ccncc4c(C)c3c2c1	class 0

Problem: Answer whether IN-GCN2 interaction (%) of C=C1C(=O)OCC2C(C(=O)O)=CC3C(C)C(C)=CC123 (stereo not drawn) is greater than or equal to 70%.
Result: class 1

Problem: Answer whether IN-GCN2 interaction (%) of "COc1cc([C@@H]2c3cc4c(cc3[C@@H](O[C@@H]3O[C@@H]5CO[C@@H](c6cccs6)O[C@H]5[C@H](O)[C@H]3O)[C@H]3COC(=O)[C@H]23)OCO4)cc(OC)c1O" is greater than or equal to 70%.
Result: class 1

Problem: Answer whether IN-GCN2 interaction (%) of "COc1cc2c(c(OC)c1O)-c1ccc(OC)c(=O)cc1[C@@H](NC(=O)C(F)(F)F)CC2" is greater than or equal to 70%.
Result: class 1

Problem: Answer whether IN-GCN2 interaction (%) of "COc1ccc2c3c([nH]c2c1)[C@H]1C[C@H]2[C@H](C[C@@H](O)[C@H](OC)[C@H]2C(=O)O)CN1CC3" is greater than or equal to 70%.
Result: class 1

Problem: Answer whether IN-GCN2 interaction (%) of "O=c1[nH]cnc2nc[nH]c12" is greater than or equal to 70%.
Result: class 1
